Let's look at some sequences and their measured soluble fraction (log2).
Test: soluble fraction after stress (log2 fold change); higher = more stays soluble; pooled small domains, quantitative proteomics
Conditions: stress: 50 degC
Form rule: numeric answer, no unit written next to it.

**Q:** Would you kindly share the measured soluble fraction (log2) for `HMPTSPKANFLKELPQEFTRKQAVTIGDKLNIKERTVDNYLAKLEQAGYLVKPKAGYYQKIKS` ?
**A:** 0.128

**Q:** Would you kindly share the measured soluble fraction (log2) for `HMDIYLTAFKTTSNQVTLNGIARSDLIISEFMRDIRDAKLFGEPVLQVIQNKNLNNVQARVFELVVPL` ?
**A:** -0.263

**Q:** Would you kindly share the measured soluble fraction (log2) for `HMVEYIENINLSEKQKFIAHEILKEIRGRAIFLRDVGLDYLNLSRKAGTLSGGEAQRIRLATQIGSA` ?
**A:** 0.226

**Q:** Would you kindly share the measured soluble fraction (log2) for `HMIHDSAESVVFPFGKYKGYTLAHVIREHPHYTYWIRDNADFSPLWREAVSLALQNRDIGHLNLPHVK` ?
**A:** -0.416

**Q:** Would you kindly share the measured soluble fraction (log2) for `HMNAQLTTQEAADLLNVSRPHLVKLLEDGELPFLRTGKHRRVRLADLLQFKNAREQASVQAMDELSRQAQ` ?
**A:** 0.154

**Q:** Would you kindly share the measured soluble fraction (log2) for `HMSIGKEATPDDIVPNIRVYHATFGYGNVIKTDGVSHDKKAVVNFDSVGEKTLLLKFAKLILPY` ?
**A:** 0.138

**Q:** Would you kindly share the measured soluble fraction (log2) for `HMIKSEERIQNIKEYILEFQFTYHRTPTMAQIAEAVGTVKSNVYKYLSEMEERGILTRNKREIEINDTIQ` ?
**A:** -0.819

**Q:** Would you kindly share the measured soluble fraction (log2) for `HMDGLTEQQADDILAFISIKGTNAEVLAALENYAGRNETFDTGLSELKVVASNLAAFGMPEENFVVDL` ?
**A:** 0.0102

---

Assay: soluble fraction after stress (log2 fold change); higher = more stays soluble; pooled small domains, quantitative proteomics
Settings: stress: 50 degC
Readout label: soluble fraction (log2)
Form rule: numeric answer, no unit written next to it.

**Q:** Would you kindly share the measured soluble fraction (log2) for `HMVLPELRLQGLPTAVLRLINRATALADDYRRLMEIAEDGRIDEWEAPEFERISENIQRVIAAGFEVL` ?
**A:** 0.0167

**Q:** Would you kindly share the measured soluble fraction (log2) for `HMIEYILDYLANRGVYAASQGEQQQMEDGIARYLQENGLEDGNTGAYYQKYVSNHLQQISASDLKAYFLN` ?
**A:** -0.529

**Q:** Would you kindly share the measured soluble fraction (log2) for `HMGNHRNMSAEEEAAILAPFKARAEAGELVEISEIAKAYQSAVDHPISRGQIYFVLHRHGWRKV` ?
**A:** -0.926

**Q:** Would you kindly share the measured soluble fraction (log2) for `HMTETPDDLLAALKKNKKAQATFDAFSPSNKKEYILWITEAKTEATRTKRLETAIEWMSEGKARNW` ?
**A:** -0.222

**Q:** Would you kindly share the measured soluble fraction (log2) for `HMKIRIIKTASNAKAVQIVSYKNNKRIVLQHIGSAHTDETLNDLKILAEEWIKDYNHQLSIF` ?
**A:** -2.49

Next:
**Q:** Would you kindly share the measured soluble fraction (log2) for `HMRRPRGVFNLVPGKRFGFITPDGGGEDVFAHLANVRAGHVAEDRNAVEYGIGRGPDGRDQAVDIVPMP` ?
**A:** -0.128

**Q:** Would you kindly share the measured soluble fraction (log2) for `HMAENTKKWDETGRRYRSYIKLEKRLSENTVESYMRDYMQFAHFILRQWDVAPHKVEPQMVERYMAWLYER` ?
**A:** -0.00858

**Q:** Would you kindly share the measured soluble fraction (log2) for `HMDTMINLIGLNLKKAKKELSNLGVNVKKVRYKKSSVYDEGVVIDQSIEAGRNIKNGDFITITVSSGKA` ?
**A:** 0.428

---

Test: soluble fraction after stress (log2 fold change); higher = more stays soluble; pooled small domains, quantitative proteomics
Conditions: stress: 50 degC
Please note: condition met applies when soluble fraction (log2) is -0.4 or greater, and condition not met applies otherwise.

Worked examples, 6 sequences total:
**Q:** Hello, I need to know if `HMFTSVDVAPDLRTAKVFYSVLGRKKSDKEINIAINQKRKAFKKFMGPELHLKNIPDLHFYYD` has measured soluble fraction (log2) not below -0.4. Thanks!
**A:** condition met

**Q:** Hello, I need to know if `HMLRTLSTSEFAEAIGISESSARRLADSGDLRIRRTKGGHRKIPAEEAIRYAREIQATVVRPDLLGLST` has measured soluble fraction (log2) not below -0.4. Thanks!
**A:** condition met

**Q:** Hello, I need to know if `HMFEDYLRMKGLSIVSFSKQTGIPISTLRNLNKIRYDKWKIRYLEELSNVLNKTIQEIIEELKNMG` has measured soluble fraction (log2) not below -0.4. Thanks!
**A:** condition not met

**Q:** Hello, I need to know if `HMDVNKDLLGETLEKAKSYKADDWRKASYEALQKAIVEAEAVYKDEEADQVAVDRKVAALNKAINNLEAKG` has measured soluble fraction (log2) not below -0.4. Thanks!
**A:** condition met

**Q:** Hello, I need to know if `HMPESETIMVDVKGAVQSEGVYELPSTARVNDAIEAAGGFSDQADKKSVNLAQKLSDEAVVYVASQGENV` has measured soluble fraction (log2) not below -0.4. Thanks!
**A:** condition met

**Q:** Hello, I need to know if `HMAGWMPGGTNPAEPGRFAVLMDVDDSDAYKHMFLRWNGHAWEFERTRVLVKMEPSWWMRLPDDPEKP` has measured soluble fraction (log2) not below -0.4. Thanks!
**A:** condition not met

Now consider the entry below.
**Q:** Hello, I need to know if `HMSKKMTNEEILNFLKKVLIKHGKISGFIIDEDDNGPSSSVVASRFGGLLNAYKLINYTPER` has measured soluble fraction (log2) not below -0.4. Thanks!
**A:** condition not met

---

Assay: soluble fraction after stress (log2 fold change); higher = more stays soluble; pooled small domains, quantitative proteomics
Settings: stress: 50 degC
Readout label: soluble fraction (log2)
Form rule: numeric answer, no unit written next to it.

Some solved cases for reference:
**Q:** Would you kindly share the measured soluble fraction (log2) for `HMDDDAELLLKKLSAAGGELPFHDRSEPAEIEAAFGLSKSAFKRALGKLLKAGKVVKTQQGIQLK` ?
**A:** 0.0395

**Q:** Would you kindly share the measured soluble fraction (log2) for `HMPLNRFLNLPHEDKERVLLIAKKQFSTHGYDAMSLNLLLKELDISKGQFYYWFEDKADLFFTVL` ?
**A:** 0.0032

Next:
**Q:** Would you kindly share the measured soluble fraction (log2) for `HMAPPDFTTFMRNYQDMVYSTAVRLIGNETQAEDIAQEVFIKAHAHFENLRTSPSAGGWLKTVATNLSIN` ?
**A:** -0.997

**Q:** Would you kindly share the measured soluble fraction (log2) for `HMSAQQTFLRDAMRRLNMTRDSFAERIGVRRRALDTWLLPEDSSEYRTMPSIVEKFVGEILGREA` ?
**A:** -0.453

**Q:** Would you kindly share the measured soluble fraction (log2) for `HMQDSSGENNPQSKLTQQQVDLLMKDLKETNVEFDKLAEKYNVSIKTIRNVNTGIAWRKNDITYPIREP` ?
**A:** -0.204

**Q:** Would you kindly share the measured soluble fraction (log2) for `HMNIFAHQIGKLRTERHLSQTDVAKRLYVSRQAVSKWENGDAEPSLDNLIALAKLFNVSLDNLITGQ` ?
**A:** -0.49

**Q:** Would you kindly share the measured soluble fraction (log2) for `HMVQIQDIAFSEFLNELEKGNILDVNIKGDLINGNMLDGKKFKTYAPYDPSLVEKLSKQNVTINVEPVN` ?
**A:** 0.0938

**Q:** Would you kindly share the measured soluble fraction (log2) for `HMKTALQENVRAYRLERKWTQQALAEALEVSVGAVSKWESGVSRPELETLMRLAELFGVSTDALLGF` ?
**A:** -1.75

---

Experiment: soluble fraction after stress (log2 fold change); higher = more stays soluble; pooled small domains, quantitative proteomics
Details: stress: 50 degC
Readout label: soluble fraction (log2)
Form rule: numeric answer, no unit written next to it.

Some solved cases for reference:
**Q:** Would you kindly share the measured soluble fraction (log2) for `HMGIAEGSSVFVRVLAAEDGGRYTVSFAGRRFSVLSRQALGIGSAFRADVKVEKGQVLLVPR` ?
**A:** -2.37

**Q:** Would you kindly share the measured soluble fraction (log2) for `HMSESLLTAAGFKTIAATTPEQKRHLEWLHPDQVTAVQLTGQHYYVYPDVAKSQLFVGTPKEYQAYLALRT` ?
**A:** -0.414

**Q:** Would you kindly share the measured soluble fraction (log2) for `HMLSKEFRFFTYLLESYAQHKNTTAGAVLKTLDEKGLTDFVYKMYDLYHVEAIENAYMDLDSLIATGKPA` ?
**A:** -2.98

Could you now consider this next sequence?
**Q:** Would you kindly share the measured soluble fraction (log2) for `HMRAAKSEDTRTRLIEGGMALFGQKGYNATGIKDITDAAGVPKGSFYNYFASKEDFGAEIIHSY` ?
**A:** 0.122

Each recorded value in this set is attributed to the domain aggregation screens of Martell et al. (2025).
